- Tested on: cisplatin-insensitive SK-N-FI cells
- protocol: Relative cell viability by MTS assay, virus or drug
- Format: cell-based
- conditions_used: cisplatin-insensitive SK-N-FI; drug
pIC50: −log10 of the molar value.
parameter: pIC50

molecule: N.N.[Cl][Pt][Cl] [cisplatin]
recorded_number: 4.00
